Let's look at some compounds and their measured TGI.
System: 786-0 renal
test: NCI tumour cell line growth inhibition, 48 h

Example cases with answers are listed next.
>>> measured("CC(=O)O[C@]12CCCC1C1(O)C(O)CCCC12 (stereo partly specified)")
"> 100 µM"
>>> measured("O=C1Cc2c([nH]c3ccc(Br)cc23)-c2ccccc2N1")
"> 100 µM"
>>> measured("CN(C)Cc1cc(O)c(O)c(CN(C)C)c1")
"> 100 µM"
>>> measured("COc1ccccc1NC(=O)C1=C(C)NC(C)=C(C(=O)Nc2ccccc2OC)C1c1ccc(C)cc1")
"> 100 µM"

[Q] Please report the measured TGI for O=C1c2c(n(Cc3ccccc3)c(=O)n2Cc2ccccc2)C(=O)N1Cc1ccccc1
[A] > 100 µM

[Q] Return TGI (reported value) for this compound: COc1cc(-c2nc3sc4c(c3c(=O)[nH]2)CCCCCC4)cc(OC)c1OC
[A] 23.2 µM

----------
Tested on: OVCAR-3 ovarian
test: NCI tumour cell line growth inhibition, 48 h
quantity: GI50

Take a look at these entries with their results.
>>> measured("CO[C@@H]1/C=C(C)/C=C/[C@@H](C)/C=C(\\C)C(=O)OC(/C(C)=C/C=C(\\C)CNC(=O)[C@H](CO)NC=O)[C@@H](C)/C=C/C=C/[C@H](OC)CC/C=C(C)/C=C/C1 (some centres not stated)")
"< 0.005 µM"
>>> measured("S=C1Nc2ccc(Cl)cc2C2(c3ccccc3)N3CCN=C3NN12 (configuration not stated)")
"25.7 µM"
>>> measured("COc1ccc(C(=O)c2cc3c(OC)c(OC)c(OC)cc3[nH]2)cc1")
"9.07 µM"
>>> measured("O=C(O)c1ccc(N/C=C2\\C(=O)c3ccccc3OC2O)cc1O (configuration not stated)")
"8.41 µg/mL"
>>> measured("N#CC1=C(N)NC(=O)NC12Nc1ccccc1S2 (configuration not stated)")
"26.8 µM"
>>> measured("C=C1C(=O)O[C@H]2[C@H]1CC/C(COC(=O)CSCC(=O)OC/C1=C/CC[C@@]3(C)O[C@H]3[C@H]3OC(=O)C(=C)[C@@H]3CC1)=C\\CC[C@@]1(C)O[C@@H]21")
"0.832 µM"

[Q] Find GI50 for COC(=O)[C@]12CC[C@@H](C)[C@H](C)[C@@H]1C1=CC[C@@H]3[C@@]4(C)C=C(O)C(=O)[C@@]5(C)COC(=C54)C[C@@]3(C)[C@]1(C)CC2 on OVCAR-3 ovarian and write it down.
[A] 11.5 µM

----------
Tested on: SR leukemia
test: NCI tumour cell line growth inhibition, 48 h
Where a SMILES comes first, the peptide text is derived from it. The star is where a group is joined. Cbz = O=C(OCc1ccccc1)*; OBn = c1ccc(CO*)cc1
quantity: TGI (µM)
State the answer as a number, implicitly in µM.

>>> measured("C#CC(F)(F)[C@]1(O)CC[C@H]2[C@@H]3CCC4=CC(=O)CCC4=C3[C@@H](c3ccc(C(C)=O)cc3)C[C@@]21C")
37

// next item, TGI requested
[Q] Fill in TGI for COC(=O)C(Cc1ccc(O)cc1)NC(=O)C(CC(=O)OCc1ccccc1)NC(=O)OCc1ccccc1 (centres undefined) (Cbz-Asp(OBn)-Tyr-OMe; configuration not given here) tested with SR leukemia.
[A] 66.3
